System: transactivating tegument protein VP16 (Human herpesvirus 1), Gal4-VP16 luciferase reporter
Assay: VP16 transactivation inhibitors, counter-screen for SRC3 inhibitor project, cell-based, luminescence, high throughput (AID 588794)
Settings: mammalian cells, VP16-driven luciferase reporter luminescence; at 3.6 µM; active compounds read high
Is inhibition at least 30%? Then 1.0. If not, 0.0.

Q. Determine whether this molecule has inhibition no lower than 30%: O=S(=O)(/C(=C/c1ccc(C(F)(F)F)cc1)c1nc2ccccc2[nH]1)c1ccccc1
A. 1.0

Q. Hello, I need to know if CC(=O)OC[C@]12CC[C@H]3[C@@](C)(CC[C@H]4C(C)(C)CCC[C@]34C)[C@@H]1CC(C1=CC(=O)OC1O)O2 (stereo not given in full) has measured inhibition not below 30%. Thanks!
A. 1.0

Q. Would you say CC(=O)c1cn(CC(=O)Nc2ccc(C)cc2C)c2ccccc12 shows inhibition at minimum 30%?
A. 0.0

Q. Reported inhibition reaches at least 30% for CCCCC(=O)NC(c1ccco1)c1cc(Cl)c2cccnc2c1O (stereo not given) ?
A. 0.0

Q. Identify whether the reported inhibition of the following molecule is 30% or greater: CN=c1scc(-c2cccs2)n1/N=C/c1ccccc1O
A. 1.0

Q. Reported inhibition reaches at least 30% for COc1ccc(Nc2nc(-c3ccccc3)nc3ccccc23)cc1S(=O)(=O)N1CCOCC1 ?
A. 0.0

Q. Quick check, inhibition >= 30%? COc1ccc(C(=O)Nc2ccc(N3CCN(C(=O)c4ccccc4C)CC3)cc2)cc1
A. 0.0

Q. Answer whether inhibition of O=C(Nc1nc(-c2ccccn2)cs1)c1ccc(F)c(S(=O)(=O)N2CCOCC2)c1 is greater than or equal to 30%.
A. 1.0

Q. Reported inhibition at or above 30%? COc1ccc(Nc2ncnc3ccc(Br)cc23)cc1OC
A. 1.0

Q. hey, is inhibition for this one >= 30%? Cc1ccc(C(=O)N/N=C/c2c(O)ccc3ccccc23)cn1
A. 1.0

###

Can you tell me activation for the items I'm about to list?
Biological target: Neuropeptide Y receptor type 2 (Homo sapiens) (UniProt P49146)
Sequence (P49146 whole entry, looked up): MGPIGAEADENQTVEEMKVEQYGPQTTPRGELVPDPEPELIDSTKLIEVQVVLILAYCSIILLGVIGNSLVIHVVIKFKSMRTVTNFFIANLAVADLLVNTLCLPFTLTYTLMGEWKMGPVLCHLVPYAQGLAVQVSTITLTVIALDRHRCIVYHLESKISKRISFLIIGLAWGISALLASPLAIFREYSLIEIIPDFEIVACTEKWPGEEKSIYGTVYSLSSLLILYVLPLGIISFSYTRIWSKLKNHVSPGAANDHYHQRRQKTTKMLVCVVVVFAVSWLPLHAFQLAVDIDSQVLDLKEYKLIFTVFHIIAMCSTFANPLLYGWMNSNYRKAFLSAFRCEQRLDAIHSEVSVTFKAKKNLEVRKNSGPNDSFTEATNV
Assay: NPY-Y2 potentiators or agonists, confirmation, cell-based (AID 1539)
Conditions: cell-based NPY-Y2 potentiator/agonist assay; at 3.6 µM; active compounds read high
Some of the results follow.
Write the number in % without appending the unit.

Q. Tell me measured activation for O=C(NCc1ccccc1)c1ccc(S(=O)(=O)Nc2cccc(C(F)(F)F)c2)cc1 please.
A. 10.8

Q. Report activation for Oc1c(Cl)cc(Cl)c(Cl)c1Cc1c(O)c(Cl)cc(Cl)c1Cl
A. 24.1

Q. Provide only the value of recorded activation for O=C(Nc1sc2c(c1-c1nc3ccccc3[nH]1)CCCC2)C1CC1
A. 19.1

Q. Identify activation associated with the compound COc1cc(NC(=O)c2ccccc2NS(=O)(=O)c2ccc(Cl)s2)cc(OC)c1
A. 0.49

Q. Retrieve activation measured for CC(=O)c1ccc2c(c1)OCCOCCOc1ccc(C(C)=O)cc1OCCOCCO2 and print it.
A. 19.6

###

Assay: cytotoxicity in rat IEC-6 cells, cytotoxicity control for KLF5 inhibitor project, cell-based, luminescence, triplicate (AID 1905);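 note: cells exposed to compounds for 48 hours before viability read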
Details: IEC-6 rat intestinal cells, viability luminescence; at 4 µM; active compounds read high
The other results are listed elsewhere or left out.
Answer each item with its documented inhibition.
Number only, in %; omit the unit.

Q. Return value of inhibition for input COc1ccc(C(=O)Nc2ccccc2C(=O)N/N=C/c2ccc(O)c(OC)c2)cc1 , no commentary.
A. 4.51

Q. // fetch inhibition given entry COc1cccc(/C=N/Nc2ncc(C(F)(F)F)cc2Cl)c1O
A. 0.75

Q. Hello, please tell me recorded inhibition for this one: COc1ccc(NC(=O)/C(Cl)=C(/Cl)S(=O)Cc2ccc(C)cc2)cn1 (stereo not given)
A. 87

Q. Look up and state reported inhibition for CSc1nc(N(C)NC(=O)c2cccc(C)c2)c2ccccc2n1
A. 73.4

Q. Indicate the recorded inhibition value for this compound: C[C@@H]1C[C@@H]2O[C@H]2/C=C\C=C\C(=O)Cc2c(Cl)c(O)cc(O)c2C(=O)O1
A. 38

Q. Output inhibition of CCCCCCCCn1c2c(c(=N)c3c1CCC3)CCCC2
A. 23.5

Q. Give a short answer stating reported inhibition for CCOc1cc(C(=O)N2CCc3cc(OC)c(OC)cc3C2)ccc1OC(F)F .
A. 59.4

Q. Tell me inhibition reported for COc1ccccc1C1C2=C(COC2=O)Nc2cc3c(cc21)OCO3 (stereo not given)
A. 82.9

Q. Give me measured inhibition, please, for this compound: COc1cc(N=Cc2c(O)[nH]c3ccccc23)cc(OC)c1OC
A. 19.1

Q. Give inhibition for the following compound: CC(=O)c1ccc(Oc2cc(C)nc(-n3nc(C)cc3C)n2)cc1
A. 57.9

Q. Indicate the recorded inhibition value for this compound: Oc1cccc(/C=N/Nc2ccc(Cl)nn2)c1O
A. 0.35

Q. Entry CN(NC(=O)c1ccccc1F)c1nc(C(F)(F)F)nc2ccccc12 needs its inhibition filled in; supply it.
A. 59.6

Q. Return inhibition for the following compound: Nc1ccc2nn(-c3ccc(Cl)cc3)nc2c1
A. 4.57

Q. Given the compound CCOC(=O)CSC1=C(C#N)C(c2sccc2C)CC(=O)N1 (stereo not given) , write its reported inhibition.
A. 57.3

Q. // Input: Cn1nccc1C(=O)NC1CCCc2c1cnn2-c1ccc(F)cc1F (stereo not given) . Output its inhibition only.
A. 13.8
